Listing of recorded Ki by entry.
# Target or test system: memapsin 2 (Homo sapiens)
# Sequence (P56817 46-501): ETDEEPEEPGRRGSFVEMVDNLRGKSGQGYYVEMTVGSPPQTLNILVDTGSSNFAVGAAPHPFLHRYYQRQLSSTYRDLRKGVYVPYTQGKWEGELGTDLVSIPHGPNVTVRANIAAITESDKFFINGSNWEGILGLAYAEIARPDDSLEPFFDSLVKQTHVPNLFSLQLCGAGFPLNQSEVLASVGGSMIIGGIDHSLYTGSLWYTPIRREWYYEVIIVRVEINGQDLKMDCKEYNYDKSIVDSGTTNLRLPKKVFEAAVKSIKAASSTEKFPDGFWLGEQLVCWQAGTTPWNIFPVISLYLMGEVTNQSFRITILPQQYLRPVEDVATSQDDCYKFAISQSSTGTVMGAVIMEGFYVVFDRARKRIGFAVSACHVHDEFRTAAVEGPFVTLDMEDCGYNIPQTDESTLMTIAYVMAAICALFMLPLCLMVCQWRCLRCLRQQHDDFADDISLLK
# Test name: Inhibition of memapsin 2 beta-secretase activity (fluorogenic substrate FS-2)
# Type: biochemical
# Experimental context: memapsin 2, pH 4, 37° C., 20 minutes pre-incubation; read-out: M2Ki

The cases that follow already have their Ki on record.
COc1cccc(CNC[C@@H](O)[C@H](Cc2ccccc2)NC(=O)c2cc(CO)cc(C(=O)N(C)Cc3nc(C)cs3)c2)c1 [Compound 49]: < 300 nM
Cc1csc(CNC(=O)c2cc(C(=O)N[C@@H](Cc3ccccc3)[C@H](O)CNCc3cncc(C(C)C)c3)cc(-c3ncco3)c2)n1 [Compound 197]: < 300 nM

Now take the following compound into account.
Identify the reported Ki for the following entry. CCCN(Cc1nc(C)cs1)C(=O)c1cc(OC)cc(C(=O)N[C@@H](Cc2ccccc2)[C@H](O)CNCc2cccc(OC)c2)c1 [Compound 20] < 300 nM
